Assay: Oral bioavailability in mice, plasma RP-HPLC
Format: in vivo, BALB/c mice
Conditions: BALB/c, mouse, plasma, po, 500 mg/kg
endpointName: Cmax

{"compound": "COc1ccc(CC(CC(=O)O)C(=O)O)cc1OC (stereo not shown) [D8, 2-(3,4-Dimethoxybenzyl)succinic Acid]", "endpointName": "Cmax", "experimentalValue": "~595 µg/mL"}
